Tested on: 786-0 renal
Experiment: NCI-60 one-dose screen, 48 h
Settings: 10 µM unless noted
This is part of a sample that, as a whole, favours compounds with a hit. Of some 83,000 tested, about 20% had one in any assay. Calls of active or inactive are those of the source. The calls were made as follows: active = growth percent below 10; inactive = the rest.
Bench note: report the call from true (1) = active, false (0) = inactive

[
  {
    "compound": "COc1ccc(/C=C/c2nc(Nc3ccc(S(=O)(=O)Nc4cc(C)on4)cc3)c3ccccc3n2)cc1",
    "classAssignment": "false (0)"
  },
  {
    "compound": "COc1cc(CC(=O)c2ccc(O)c(OC)c2)ccc1O",
    "classAssignment": "false (0)"
  }
]

Could you please tell me the result logged for Cc1cccc(NC(=O)Nc2ccc(-n3cnc4cc(-c5ccc(O)cc5)ccc43)cc2)c1 in this assay?
false (0)

What do you have for CCCCCN1C=C/C(=C\C(=O)N2CCCc3ccccc32)c2ccccc21 ?
false (0)

What do you have for CC(C)(C)[Si](C)(C)OC1[C@@H](O[Si](C)(C)C(C)(C)C)[C@@H](CNC(=O)NC(=O)CCl)O[C@H]1n1cnc2c(NC(=O)Nc3ccccc3)ncnc21 (stereo partly drawn) ?
true (1)

What do you have for C[C@H]1[C@H](C)CC[C@]2(C(=O)NCC#CCN3CCN(C)CC3)CC[C@]3(C)C(=CC[C@@H]4[C@@]5(C)Cc6c([nH]c7ccccc67)C(C)(C)[C@@H]5CC[C@]43C)[C@H]12 ?
false (0)

What do you have for COC(=O)C(CC=O)C(=O)C(=O)Nc1cccc(C(F)(F)F)c1 (stereo not drawn) ?
false (0)

What do you have for NS(=O)(=O)c1ccc(CCN2C(=O)C=CC2=O)cc1 ?
false (0)

====

I'd be grateful if you could share measured growth for these entries.
Tested on: IGROV1 ovarian
Experiment: NCI-60 one-dose screen, 48 h (100 = growth as untreated, 0 = no growth, -100 = all killed)
Settings: 10 µM unless noted
About 83,000 compounds went through this panel and 20% of them were active in at least one assay; those are over-represented in the sample as a whole.
Numbers only, in %.

[
  {
    "moleculeSmiles": "CC(C)N1C(=O)/C(=C2\\SC(=S)N(C(C)C)C2=O)SC1=S",
    "measurementKind": "growth",
    "resultNumber": 94.4
  },
  {
    "moleculeSmiles": "C[C@H]1[C@H]2[C@H]3CC[C@@H]4[C@@]5(C)CC[C@H](O)C(C)(C)[C@@H]5CC[C@@]4(C)[C@]3(C)CC[C@]23CO[C@]1(C)[C@@H](C(=O)/C=C\\c1ccco1)C3",
    "measurementKind": "growth",
    "resultNumber": 108
  },
  {
    "moleculeSmiles": "COc1cc(C2=C(c3cn(C)c4ccccc34)COC2=O)cc(OC)c1OC",
    "measurementKind": "growth",
    "resultNumber": 11.1
  }
]

Shift focus to the following entry.
Could you tell me which growth is on file for CCN1C(=O)/C(=C/C(=O)OC)S/C1=N\NC(=O)c1cc2ccc1/C=C\c1ccc(cc1)/C=C\2 ?
88.4

====

Test system: BT-549 breast
Assay: NCI-60 one-dose screen, 48 h
Conditions: 10 µM unless noted
Experimental: Growth inhibition of the BT-549 human tumor cell line is measured as a screen for anti-cancer activity. Cells are grown in 96 well plates and exposed to the test compound for 48 hours. Compounds are tested at a single concentration, which is 10^-5 M for most compounds. The reported endpoint is percent growth (GI% or GIPRCNT), where numbers from 0 - 100% represent growth inhibition, and numbers from -100% - 0 represent cell death. For example, a value of 40 represents 60% growth inhibition. […]
Compounds without any hit were thinned out: in the full panel of roughly 83,000, 20% have a hit. Activity calls are given as the source filed them. The calls were made as follows: active = growth percent below 10; inactive = the rest.
Bench note: report the call from True (active), False (inactive)

[
  {
    "molecule": "CCN(CC)CCn1c(=O)c2cc(OC)c(OC)cc2c2ccc3cc4c(cc3c21)OCO4",
    "subjectOfTest": "BT-549 breast",
    "classAssignment": "False"
  }
]

Please examine the following record next.
Could you please tell me the result logged for COc1cc2c3c(c4c5ccccc5[nH]c4c2c(OC)c1OC)C(=O)N(CCN1CCOCC1)C3=O in this assay?
False
